Test system: En. faecium (Clinical; MDR; pig, faeces), upper row
EXPERIMENTAL DETAILS: MIC, broth microdilution
Format: cell-based
RUN PARAMETERS: Enterococcus faecium, En. faecium clinical MDR isolate, MHB, 16–18 h, 37°C, independent triplicates
ASSAY READOUT: MIC

Below, each entry is followed by its recorded MIC result.
C[C@@H](O)[C@H]1C(=O)N2C(C(=O)O)=C(SCCN=CN)C[C@H]12 [IMP, imipenem] = > 32 µg/mL
CC(C)(O/N=C(\C(=O)N[C@@H]1C(=O)N2C(C(=O)[O-])=C(C[n+]3ccccc3)CS[C@H]12)c1csc(N)n1)C(=O)O [CAZ, ceftazidime] = > 32 µg/mL

Please examine the following record next.
// sample CN(C)[C@@H]1C(O)=C(C(N)=O)C(=O)[C@@]2(O)C(O)=C3C(=O)c4c(O)cccc4[C@@](C)(O)[C@H]3C[C@@H]12 [TET, tetracycline] , its MIC was > 32 µg/mL
